# MIC listing for each entry below
Test system: A. baumanii ATCC 19606
Test Details: MIC assay of antibiotics with ATX-101
Format: cell-based
Condition Notes: Acinetobacter baumannii, ATCC19606, A. baumanii ATCC 19606; APIM (ATX-101) conc. 4 μg/ml; read-out: Est MIC
Just the number in mg/L, nothing appended.

Worked examples follow.
Molecule Smiles	MIC (mg/L)
CO[C@@H]1[C@@H](OC(N)=O)[C@@H](O)[C@H](Oc2ccc3c(O)c(NC(=O)c4ccc(O)c(CC=C(C)C)c4)c(=O)oc3c2C)OC1(C)C	8
C[C@@H](O)[C@H]1C(=O)N2C(C(=O)O)=C(SCCN=CN)C[C@H]12	0.125
CC[C@@]1([C@@H]2O[C@@H]([C@H]3O[C@@](O)(CO)[C@H](C)C[C@@H]3C)C[C@@H]2C)CC[C@H]([C@]2(C)CC[C@]3(C[C@H](O)[C@@H](C)[C@@H]([C@@H](C)[C@@H](OC)[C@H](C)C(=O)O)O3)O2)O1	64

Attention now turns to another entry.
Q: Can you share its MIC? I mean this compound: "CO[C@H]1/C=C/O[C@@]2(C)Oc3c(C)c(O)c4c(O)c(c(/C=N/N5CCN(C)CC5)c(O)c4c3C2=O)NC(=O)/C(C)=C\C=C\[C@H](C)[C@H](O)[C@@H](C)[C@@H](O)[C@@H](C)[C@H](OC(C)=O)[C@@H]1C"
Result: 1

###

Property: MIC; scope: individual compounds
Test system: E. faecium CTC 492
Test Details: MIC assay of antibiotics with ATX-101
Assay type: cell-based, Enterococcus faecium
Condition Notes: Enterococcus faecium, CTC492, E. faecium CTC 492; APIM (ATX-101) conc. 6.5 μg/ml; read-out: Est MIC
Procedure: The minimum inhibitory concentration (MIC) of ATX-101 (SEQ ID NO: 1289) was determined for various gram negative and gram positive bacteria. […]
Answer format: value, then unit.

Compound	Measurement Kind	Result
CO[C@H]1/C=C/O[C@@]2(C)Oc3c(C)c(O)c4c(O)c(c(/C=N/N5CCN(C)CC5)c(O)c4c3C2=O)NC(=O)/C(C)=C\C=C\[C@H](C)[C@H](O)[C@@H](C)[C@@H](O)[C@@H](C)[C@H](OC(C)=O)[C@@H]1C [Rifampicin]	MIC	32 µg/mL
C[C@@H](O)[C@H]1C(=O)N2C(C(=O)O)=C(SCCN=CN)C[C@H]12 [Imipenem]	MIC	2 µg/mL

Q: Consider the compound shown here: NC[C@H]1O[C@H](O[C@H]2[C@H](O)[C@@H](O[C@H]3O[C@H](CO)[C@@H](O)[C@H](N)[C@H]3O)[C@H](N)C[C@@H]2N)[C@H](N)C[C@@H]1O [Tobramycin] What is its recorded MIC?
Result: 64 µg/mL

###

Test system: E. faecium CTC 492
Test Details: MIC assay of antibiotics with ATX-101
Assay type: cell-based, Enterococcus faecium
Condition Notes: Enterococcus faecium, CTC492, E. faecium CTC 492; APIM (ATX-101) conc. 6.5 μg/ml; read-out: Est MIC
// reported MIC per item
Reply with just the number (in µg/mL).

Consider the reported MIC for these compounds:
Compound	Readout Unit	MIC
O=C(N[C@H](CO)[C@H](O)c1ccc([N+](=O)[O-])cc1)C(Cl)Cl	µg/mL	2
CC1(C)S[C@@H]2[C@H](NC(=O)[C@H](N)c3ccccc3)C(=O)N2[C@H]1C(=O)O	µg/mL	0.5
CC[C@H]1OC(=O)[C@H](C)[C@@H](O[C@H]2C[C@@](C)(OC)[C@@H](O)[C@H](C)O2)[C@H](C)[C@@H](O[C@@H]2O[C@H](C)C[C@H](N(C)C)[C@H]2O)[C@](C)(O)C[C@@H](C)C(=O)[C@H](C)[C@@H](O)[C@]1(C)O	µg/mL	4
CC[C@@]1([C@@H]2O[C@@H]([C@H]3O[C@@](O)(CO)[C@H](C)C[C@@H]3C)C[C@@H]2C)CC[C@H]([C@]2(C)CC[C@]3(C[C@H](O)[C@@H](C)[C@@H]([C@@H](C)[C@@H](OC)[C@H](C)C(=O)O)O3)O2)O1	µg/mL	0.5

Turning now to a further compound:
Q: Requested read-out: MIC. Entry: CN[C@@H]1[C@@H](O[C@H]2O[C@H](CO)[C@@H](N)[C@H](O)[C@H]2O)OC2C[C@@H](N)[C@@H](O[C@H]3[C@H](O)[C@@H](O)[C@H](N)C[C@@H]3N)OC2[C@@H]1O (some centres unmarked)
Result: 64
